- Protocol Text: log P by HPLC on reversed-phase column (C 18), EEC Directive 79/831 Annex V.A8
- Assay type: physicochemical
- Applied Conditions: HPLC on reversed-phase column (C 18); 40° C.; 0.1% aqueous formic acid and acetonitrile; linear gradient 10% to 90% acetonitrile
Observation Type: logP
# print the numeric value only

Lab note: measured logP of Cn1nc(C(F)F)c(C(=S)N2CCCCC2c2cccc(Cl)c2)c1F (stereo not drawn) [Example 49] was 4.06

----------
Efficacy values, listed per item
- Tested on: Venturia inaequalis
- Protocol Text: In vivo preventive test on Venturia inaequalis (apple scab)
- Applied Conditions: 100 ppm of active ingredient, evaluated 10 days after inoculation
Field: numeric (%). Do not append units.

The examples below pair each entry with its known result.
1) CCc1nn(C)c(F)c1C(=O)N1CCCCC1c1cc(OC)cc(OC)c1 (stereo not drawn) [Example 67]; 100
2) CCC(c1ccccc1)C1CCCCN1C(=O)c1c(C(F)F)nn(C)c1F (stereo not drawn) [Example 136]; 100
3) CCC(c1ccccc1)C1CCCCN1C(=S)c1c(C(F)F)nn(C)c1F (stereo not drawn) [Example 140]; 100
4) Cc1cc(C)cc(C2CCCCN2C(=O)c2c(C(F)F)nn(C)c2F)c1 (stereo not drawn) [Example 30]; 100
5) CCc1nn(C)c(F)c1C(=O)N1CCCCC1c1cc(C)cc(C)c1 (stereo not drawn) [Example 11]; 100
6) CCc1nn(C)c(F)c1C(=O)N1CCCCC1c1ccc(Cl)cc1 (stereo not drawn) [Example 54]; 98

Tested on Venturia inaequalis, the item CCC(c1ccccc1Cl)C1CCCCN1C(=S)c1c(C(F)F)nn(C)c1F (stereo not drawn) [Example 165] showed Efficacy equal to 99

Tested on Venturia inaequalis, the item Cc1cc(C)cc(C2CCCCN2C(=O)c2c(C)nn(C)c2F)c1 (stereo not drawn) [Example 10] showed Efficacy equal to 100

Tested on Venturia inaequalis, the item Cc1ccccc1C1CCCCN1C(=O)c1c(C)nn(C)c1F (stereo not drawn) [Example 1] showed Efficacy equal to 99

----------
- Protocol Text: log P by HPLC on reversed-phase column (C 18), EEC Directive 79/831 Annex V.A8
- Format: physicochemical
- Applied Conditions: HPLC on reversed-phase column (C 18); 40° C.; 0.1% aqueous formic acid and acetonitrile; linear gradient 10% to 90% acetonitrile
Observation Type: logP
# print the numeric value only

1. CCn1ncc(Cl)c1C(=O)N1CCCCC1c1cc(C)cc(C)c1 (stereo not shown) [Example 32]; 4.34
2. Cc1cc(C(=O)N2CCCCC2c2cccc(Br)c2)c(C)o1 (stereo not shown) [Example 93]; 4.11
3. Cc1cc(C(=O)N2CCCCC2CCc2ccccc2)c(C)o1 (stereo not shown) [Example 175]; 3.92

Now take the following compound into account.
Lab note: measured logP of Cn1nc(C(F)F)c(C(=O)N2CCCCC2c2cccc(Br)c2)c1Cl (stereo not shown) [Example 96] was 3.71

----------
Efficacy values, listed per item
- System: Puccinia triticina
- Protocol Text: In vivo preventive test on Puccinia triticina (wheat)
- Applied Conditions: 500 ppm of active ingredient, evaluated 8 days after inoculation
Field: numeric (%). Do not append units.

1. Cc1cc(C)cc(C2CCCCN2C(=O)c2c(C(F)F)nn(C)c2F)c1 (stereo not shown); 100
2. CCc1nn(C)c(F)c1C(=O)N1CCCCC1c1ccc(Cl)cc1 (stereo not shown); 100
3. CCc1nn(C)c(F)c1C(=O)N1CCCCC1c1cc(C)cc(C)c1 (stereo not shown); 100
4. Cc1cc(C)cc(C2CCCCN2C(=O)c2c(C)nn(C)c2F)c1 (stereo not shown); 88
5. Cc1cc(C(=O)N2CCCCC2c2ccc(Cl)cc2)c(C)o1 (stereo not shown); 71
6. Cc1nn(C)c(F)c1C(=O)N1CCCCC1c1cccc(Br)c1 (stereo not shown); 71

Lab note: measured Efficacy of CCC(c1ccccc1Cl)C1CCCCN1C(=O)c1c(C(F)F)nn(C)c1F (stereo not shown) was 100

----------
- Protocol Text: log P by HPLC on reversed-phase column (C 18), EEC Directive 79/831 Annex V.A8
- Format: physicochemical
- Applied Conditions: reversed-phase HPLC column (C 18); HPLC on reversed-phase column (C 18); 40° C.; 0.1% aqueous formic acid and acetonitrile; linear gradient 10% to 90% acetonitrile
- Protocol: In table 1, the log P values were determined in accordance with EEC Directive 79/831 Annex V.A8 by HPLC (High Performance Liquid Chromatography) on a reversed-phase column (C 18), using the method described below: Temperature: 40° C.; Mobile phases: 0.1% aqueous formic acid and acetonitrile; linear gradient from 10% acetonitrile to 90% acetonitrile. […]
Observation Type: chromatographic logP
# print the numeric value only

Lab note: measured chromatographic logP of Cc1ccccc1C1CCCCN1C(=O)c1c(C)nn(C)c1F (stereo not shown) was 2.71

----------
- Protocol Text: log P by HPLC on reversed-phase column (C 18), EEC Directive 79/831 Annex V.A8
- Assay type: physicochemical
- Applied Conditions: HPLC on reversed-phase column (C 18); 40° C.; 0.1% aqueous formic acid and acetonitrile; linear gradient 10% to 90% acetonitrile
Cut-off 4 on logP: below means condition met, at or above means condition not met.

These solved cases illustrate the format of a correct answer.
1. CCC(c1ccccc1Cl)C1CCCCN1C(=S)c1c(C(F)F)nn(C)c1F (stereo not drawn); condition not met
2. Cc1nc(C(F)F)c(C(=O)N2CCCCC2Cc2cccc(C(F)(F)F)c2)s1 (stereo not drawn); condition met
3. CCc1nn(C)c(F)c1C(=O)N1CCCCC1c1ccc(Br)s1 (stereo not drawn); condition met
4. Cn1nc(C(F)F)c(C(=O)N2CCCCC2CCOc2ccccc2-c2ccccc2)c1Cl (stereo not drawn); condition not met
5. CCc1nn(C)c(F)c1C(=O)N1CCCCC1c1ccccc1Cl (stereo not drawn); condition met
6. Cc1cc(C)cc(C2CCCCN2C(=O)c2c(C(F)(F)F)cn(C)c2F)c1 (stereo not drawn); condition not met
7. CCc1nn(C)c(F)c1C(=O)N1CCCCC1c1ccc2c(c1)OCCO2 (stereo not drawn); condition met
8. Cc1cc(C)cc(C2CCCCN2C(=O)c2snnc2C)c1 (stereo not drawn); condition met

Exam item: Here's an entry: Cc1cc(C(=O)N2CCCCC2Cc2ccccc2C)c(C)o1 (stereo not drawn) . Is its logP below 4?
Marked response: condition met

----------
- Protocol Text: log P by HPLC on reversed-phase column (C 18), EEC Directive 79/831 Annex V.A8
- Assay type: physicochemical
- Applied Conditions: reversed-phase HPLC column (C 18); HPLC, 40° C., 0.1% aqueous formic acid and acetonitrile
Observation Type: chromatographic logP
# print the numeric value only

The examples below pair each entry with its known result.
1) Cc1ccc(C2CCCC(C)N2C(=O)c2c(C(F)F)nn(C)c2F)cc1 (stereo not drawn) [Example 197]; 3.55
2) Cc1ccc(C2CCCC(C)N2C(=O)c2cn(C)nc2C(F)F)cc1 (stereo not drawn) [Example 199]; 3.17

Lab note: measured chromatographic logP of Cc1ccc(C2CCCC(C)N2C(=O)c2c(C(F)F)nn(C)c2Cl)cc1 (stereo not drawn) [Example 198] was 3.73

----------
- Tested on: Blumeria graminis f. sp. hordei
- Protocol Text: In vivo preventive test on Blumeria graminis (barley)
- Applied Conditions: 500 ppm of active ingredient, evaluated 7 days after inoculation
Observation Type: Efficacy (%)
Field: numeric (%). Do not append units.

1. CCC(c1ccccc1)C1CCCCN1C(=O)c1c(C(F)F)nn(C)c1F (centres unmarked); 100
2. Cc1cc(C)cc(C2CCCCN2C(=O)c2c(C)nn(C)c2F)c1 (centres unmarked); 88
3. CCC(c1ccccc1)C1CCCCN1C(=S)c1c(C(F)F)nn(C)c1F (centres unmarked); 100
4. CCc1nn(C)c(F)c1C(=O)N1CCCCC1c1ccc(Cl)cc1 (centres unmarked); 70
5. Cc1nn(C)c(F)c1C(=O)N1CCCCC1c1cccc(Br)c1 (centres unmarked); 100

Lab note: measured Efficacy of CCc1nn(C)c(F)c1C(=O)N1CCCCC1c1cc(C)cc(C)c1 (centres unmarked) was 80

Lab note: measured Efficacy of Cc1cc(C)cc(C2CCCCN2C(=O)c2c(C(F)F)nn(C)c2F)c1 (centres unmarked) was 100

----------
- Protocol Text: log P by HPLC on reversed-phase column (C 18), EEC Directive 79/831 Annex V.A8
- Format: physicochemical
- Applied Conditions: HPLC on reversed-phase column (C 18); 40° C.; 0.1% aqueous formic acid and acetonitrile; linear gradient 10% to 90% acetonitrile
- Description: In table 1, the log P values were determined in accordance with EEC Directive 79/831 Annex V.A8 by HPLC (High Performance Liquid Chromatography) on a reversed-phase column (C 18), using the method described below: Temperature: 40° C.; Mobile phases: 0.1% aqueous formic acid and acetonitrile; linear gradient from 10% acetonitrile to 90% acetonitrile. […]
Would you mind labelling by logP? At or over 4 is 1, under is 0.

Exam item: Quick check: does CCc1noc(C)c1C(=O)N1CCCCC1c1ccc(Cl)cc1 (centres unmarked) have logP greater than or equal to 4?
Marked response: 0

Exam item: Quick check: does COc1ccccc1CC1CCCCN1C(=O)c1c(C(F)F)nn(C)c1F (centres unmarked) have logP greater than or equal to 4?
Marked response: 0

Exam item: Quick check: does Cc1cc(C(=O)N2CCCCC2c2cccc(I)c2)c(C)o1 (centres unmarked) have logP greater than or equal to 4?
Marked response: 1
